System: NF-κB
Method Description: Test on the function of inhibiting the activation of NF-κB induced by ultraviolet rays (gel shift assay)
Format: cell-based, human
Measurement Context: addition concentration 0.01 mM; human epidermal cells, UVB 50 mJ/cm^2
Measured Endpoint: Inhibition ratio (%) of NF-κB activation
Answer format: value, then unit.

Compound: CCOC(=O)[C@H](CSSC[C@H](N)C(=O)O)NC(C)=O
Target: NF-κB
Measured Endpoint: Inhibition ratio (%) of NF-κB activation
Reported: 31%
//
Compound: CCCC(=O)N[C@@H](CSSC[C@H](NC(=O)CCC)C(=O)OC)C(=O)OC
Target: NF-κB
Measured Endpoint: Inhibition ratio (%) of NF-κB activation
Reported: 52%
//
Compound: CCCCCCCCCCCC(=O)N[C@@H](CSSC[C@H](N)C(=O)O)C(=O)OC
Target: NF-κB
Measured Endpoint: Inhibition ratio (%) of NF-κB activation
Reported: 36%
//
Compound: CCCCCCC(=O)N[C@@H](CSSC[C@H](NC(=O)CCCCCC)C(=O)OC)C(=O)OC
Target: NF-κB
Measured Endpoint: Inhibition ratio (%) of NF-κB activation
Reported: 25%
//
Compound: CC(=O)N[C@@H](CSSC[C@H](N)C(=O)O)C(=O)OC(C)C
Target: NF-κB
Measured Endpoint: Inhibition ratio (%) of NF-κB activation
Reported: 21%
//
Compound: CCCC(=O)N[C@@H](CSSC[C@H](NC(=O)CCC)C(N)=O)C(N)=O [N,N′-di(n-butyryl)-L-cystine diamide]
Target: NF-κB
Measured Endpoint: Inhibition ratio (%) of NF-κB activation
Reported: 45%

Query string: Endpoint output: Inhibition ratio (%) of NF-κB activation of COC(=O)[C@H](CCSSCC[C@H](NC(C)=O)C(=O)OC)NC(C)=O (racemic) . Value?
Result string: 10%
